- PROCEDURE SUMMARY: Inhibition of recombinant HIV1 HXB2 reverse transcriptase RDDP activity assessed as reduction in biotin/digoxin-dU incorporation into polirA-oligodU template primer measured after 30 mins by ELISA
- Design: species or system HIV-1 M:B_HXB2R
MEASUREMENT NAME: pIC50
pIC50 here: minus log base 10 of the concentration, concentration in moles per litre.

{"MOLECULE": "O=C(OC[C@H]1O[C@@H](n2cc(C(=O)NCc3ccc(Cl)cc3)c(=O)c3cc(Cl)ccc32)[C@H](OC(=O)c2ccccc2)[C@@H]1OC(=O)c1ccccc1)c1ccccc1", "pIC50": 5.06}
{"MOLECULE": "O=C(OC[C@H]1O[C@@H](n2cc(C(=O)Nc3ccc(F)cc3)c(=O)c3cc(Cl)ccc32)[C@H](OC(=O)c2ccccc2)[C@@H]1OC(=O)c1ccccc1)c1ccccc1", "pIC50": 5.14}
{"MOLECULE": "O=C(OC[C@H]1O[C@@H](n2cc(C(=O)Nc3ccccc3)c(=O)c3cc(Cl)ccc32)[C@H](OC(=O)c2ccccc2)[C@@H]1OC(=O)c1ccccc1)c1ccccc1", "pIC50": 4.71}

Kindly review the next molecule as well.
// pIC50 value for "O=C(OC[C@H]1O[C@@H](n2cc(C(=O)NCc3ccc(Cl)cc3)c(=O)c3cc(C(F)(F)F)ccc32)[C@H](OC(=O)c2ccccc2)[C@@H]1OC(=O)c1ccccc1)c1ccccc1" : 5.54

---

- PROCEDURE SUMMARY: Inhibition of recombinant HIV1 HXB2 reverse transcriptase RDDP activity assessed as reduction in biotin/digoxin-dU incorporation into polirA-oligodU template primer measured after 30 mins by ELISA
- Parameters: species or system HIV-1 M:B_HXB2R
Each entry below lists one item and its recorded pIC50 value.
pIC50 here: minus log base 10 of the concentration, concentration in moles per litre.

In the examples that follow, each entry is paired with its recorded pIC50.
{"SMILES STRUCTURE": "O=C(OC[C@H]1O[C@@H](n2cc(C(=O)NCc3ccc(Cl)cc3)c(=O)c3cc(F)ccc32)[C@H](OC(=O)c2ccccc2)[C@@H]1OC(=O)c1ccccc1)c1ccccc1", "pIC50": 5.55}
{"SMILES STRUCTURE": "O=C(OC[C@H]1O[C@@H](n2cc(C(=O)Nc3ccc(Cl)cc3)c(=O)c3cc(Cl)ccc32)[C@H](OC(=O)c2ccccc2)[C@@H]1OC(=O)c1ccccc1)c1ccccc1", "pIC50": 5.00}
{"SMILES STRUCTURE": "COc1ccc(NC(=O)c2cn([C@@H]3O[C@H](CO)[C@@H](O)[C@H]3O)c3ccc(Cl)cc3c2=O)cc1", "pIC50": 5.47}
{"SMILES STRUCTURE": "O=C(NCc1ccc(Cl)cc1)c1cn([C@@H]2O[C@H](CO)[C@@H](O)[C@H]2O)c2ccc(F)cc2c1=O", "pIC50": 5.41}

// pIC50 value for "O=C(OC[C@H]1O[C@@H](n2cc(C(=O)NCc3ccc(Cl)cc3)c(=O)c3ccccc32)[C@H](OC(=O)c2ccccc2)[C@@H]1OC(=O)c1ccccc1)c1ccccc1" : 5.85

// pIC50 value for "Cc1ccc2c(c1)c(=O)c(C(=O)NCc1ccc(Cl)cc1)cn2[C@@H]1O[C@H](CO)[C@@H](O)[C@H]1O" : 5.37

// pIC50 value for "COc1ccc(NC(=O)c2cn([C@@H]3O[C@H](COC(=O)c4ccccc4)[C@@H](OC(=O)c4ccccc4)[C@H]3OC(=O)c3ccccc3)c3ccc(Cl)cc3c2=O)cc1" : 5.17

// pIC50 value for "O=C(Nc1ccccc1)c1cn([C@@H]2O[C@H](CO)[C@@H](O)[C@H]2O)c2ccc(Cl)cc2c1=O" : 5.59

// pIC50 value for "O=C(Nc1ccc(Cl)cc1)c1cn([C@@H]2O[C@H](CO)[C@@H](O)[C@H]2O)c2ccc(Cl)cc2c1=O" : 5.10

// pIC50 value for "O=C(NCc1ccc(Cl)cc1)c1cn([C@@H]2O[C@H](CO)[C@@H](O)[C@H]2O)c2ccc(C(F)(F)F)cc2c1=O" : 5.41

// pIC50 value for "Cc1ccc2c(c1)c(=O)c(C(=O)NCc1ccc(Cl)cc1)cn2[C@@H]1O[C@H](COC(=O)c2ccccc2)[C@@H](OC(=O)c2ccccc2)[C@H]1OC(=O)c1ccccc1" : 5.80

// pIC50 value for "O=C(OC[C@H]1O[C@@H](n2cc(C(=O)NC3CCCCC3)c(=O)c3cc(Cl)ccc32)[C@H](OC(=O)c2ccccc2)[C@@H]1OC(=O)c1ccccc1)c1ccccc1" : 5.07

// pIC50 value for "O=C(NC1CCCCC1)c1cn([C@@H]2O[C@H](CO)[C@@H](O)[C@H]2O)c2ccc(Cl)cc2c1=O" : 4.65

---

- PROCEDURE SUMMARY: Cytotoxicity against human PBMC assessed as reduction in cell viability after 72 hrs by XTT assay
- Format: tissue-based
MEASUREMENT NAME: CC50 at 72 h

// CC50 at 72 h value for "O=C(Nc1ccc(F)cc1)c1cn([C@@H]2O[C@H](CO)[C@@H](O)[C@H]2O)c2ccc(Cl)cc2c1=O" : > 1 mM

// CC50 at 72 h value for "O=C(Nc1ccc(Cl)cc1)c1cn([C@@H]2O[C@H](CO)[C@@H](O)[C@H]2O)c2ccc(Cl)cc2c1=O" : > 1 mM

---

Each entry below lists one item and its recorded pIC50 value.
- PROCEDURE SUMMARY: Inhibition of recombinant HIV1 HXB2 reverse transcriptase RDDP activity assessed as reduction in biotin/digoxin-dU incorporation into polirA-oligodU template primer measured after 30 mins by ELISA
- Parameters: species or system HIV-1 M:B_HXB2R
pIC50 here: minus log base 10 of the concentration, concentration in moles per litre.

In the examples that follow, each entry is paired with its recorded pIC50.
{"SMILES STRUCTURE": "O=C(NCc1ccc(Cl)cc1)c1cn([C@@H]2O[C@H](CO)[C@@H](O)[C@H]2O)c2ccccc2c1=O", "pIC50": 4.53}
{"SMILES STRUCTURE": "Cc1cn([C@H]2C[C@H](N=[N+]=[N-])[C@@H](CO)O2)c(=O)[nH]c1=O", "pIC50": 7.30}
{"SMILES STRUCTURE": "O=C(Nc1ccc(F)cc1)c1cn([C@@H]2O[C@H](CO)[C@@H](O)[C@H]2O)c2ccc(Cl)cc2c1=O", "pIC50": 5.24}
{"SMILES STRUCTURE": "Cc1ccc(NC(=O)c2cn([C@@H]3O[C@H](COC(=O)c4ccccc4)[C@@H](OC(=O)c4ccccc4)[C@H]3OC(=O)c3ccccc3)c3ccc(Cl)cc3c2=O)cc1", "pIC50": 4.78}

Kindly review the next compound as well.
// pIC50 value for "O=C(NCc1ccc(Cl)cc1)c1cn([C@@H]2O[C@H](CO)[C@@H](O)[C@H]2O)c2ccc(Cl)cc2c1=O" : 4.74

---

- PROCEDURE SUMMARY: Cytotoxicity against human PBMC assessed as reduction in cell viability after 72 hrs by XTT assay
- Type: tissue-based
MEASUREMENT NAME: CC50 at 72 h (µM)
Write it as a number; the unit µM goes unstated.

{"SMILES STRUCTURE": "Cc1cn([C@H]2C[C@H](N=[N+]=[N-])[C@@H](CO)O2)c(=O)[nH]c1=O", "UOM": "µM", "VALUE": 126}
{"SMILES STRUCTURE": "O=C(OC[C@H]1O[C@@H](n2cc(C(=O)NCc3ccc(Cl)cc3)c(=O)c3ccccc32)[C@H](OC(=O)c2ccccc2)[C@@H]1OC(=O)c1ccccc1)c1ccccc1", "UOM": "µM", "VALUE": 1490}

// CC50 at 72 h value for "Cc1ccc2c(c1)c(=O)c(C(=O)NCc1ccc(Cl)cc1)cn2[C@@H]1O[C@H](COC(=O)c2ccccc2)[C@@H](OC(=O)c2ccccc2)[C@H]1OC(=O)c1ccccc1" : 1390
